# System: Danio rerio larvae (5 dpf)
# MEASUREMENT_NOTES: combined upward orientation toward moving lines (periods 7-14) minus DMSO control (percentage points); higher = more orientation with moving lines than DMSO larvae
# MEASUREMENT_SETUP: 10 µM; exposure time: 3 h pre-incubation + 3 h imaging
Below: a set of entries, each annotated with reported combined upward orientation toward moving lines.
API note: the answer field is a bare number with no unit suffix.

# example entries with known answers
[in] Suppose we examine the compound OCc1cc(C(O)CNCCCCCCOCCCCc2ccccc2)ccc1O (centres undefined) [Salmeterol xinafoate] ; what combined upward orientation toward moving lines value has been reported?
[out] -1.98

[in] # iterate: C[C@@H]1C[C@H]2[C@@H]3CCC4=CC(=O)C=C[C@]4(C)[C@@]3(F)[C@@H](O)C[C@]2(C)[C@@]1(O)C(=O)CO
[out] -5.03

[in] Now consider CC(=O)Oc1cc2c(s1)CCN(C(C(=O)C1CC1)c1ccccc1F)C2 (centres undefined) .
[out] -5.5

// moving on: another record for combined upward orientation toward moving lines
[in] Suppose we examine the compound C[C@H]1O[C@H](O[C@H]2[C@H](O)[C@@H](O)[C@@H](O[C@H]3[C@H](O)[C@@H](O)C(O)O[C@@H]3CO)O[C@@H]2CO)[C@H](O)[C@@H](O)[C@@H]1N[C@H]1C=C(CO)[C@@H](O)[C@H](O)[C@H]1O (some centres undefined) ; what combined upward orientation toward moving lines value has been reported?
[out] 4.65

meta.source: the supplement of paper PMC9950053
